Where these numbers come from: patent US20240092784A1

# test.target: human SPR (Homo sapiens (Human), UniProt P35270)
# Sequence (P35270 whole entry): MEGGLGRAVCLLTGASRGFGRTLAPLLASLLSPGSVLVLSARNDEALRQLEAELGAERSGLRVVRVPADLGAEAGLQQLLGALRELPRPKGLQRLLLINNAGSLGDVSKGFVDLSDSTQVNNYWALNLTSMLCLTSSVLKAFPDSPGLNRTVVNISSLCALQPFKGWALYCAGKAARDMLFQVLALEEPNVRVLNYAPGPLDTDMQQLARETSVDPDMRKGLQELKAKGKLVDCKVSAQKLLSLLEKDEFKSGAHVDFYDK
# experiment.description: Evaluation Example 2: Measurement of human SPR inhibitory activity (seven concentrations, sepiapterin absorbance at 420 nm)
# Assay type: biochemical
# measurement.conditions: Evaluation Example 2, seven concentrations 0.14 nM to 100 nM, 240 minutes at room temperature, read-out: IC50
Where a name gives a salt, the structure may show the parent alone.
reported.metric: pIC50
Remember, pIC50 is on a log scale: it is -log10 of the molar concentration.

Lookup: Look up pIC50: COC1(C)CCN(C(=O)/C=C/c2cnn3c(O)c(C(=O)NC4CC4)c(=O)n(CC(C)C)c23)CC1
Found: 9.06

Lookup: Look up pIC50: CC(C)Cn1c(=O)c(C(=O)NC2CC2)c(O)n2ncc(/C=C/C(=O)N3CCO[C@@H](C(F)(F)F)C3)c12
Found: 8.99

Lookup: Look up pIC50: COc1cnc(Nc2cc3n(CC(C)(C)C)c(=O)c(C(=O)NC4CC4)c(O)n3n2)cn1 [Synthesis Example 16]
Found: 8.71

Lookup: Look up pIC50: CC(C)Cn1c(=O)c(C(=O)NC2CC2)c(O)n2ncc(/C=C/C(=O)N3CCC[C@@H]3C(C)(C)O)c12
Found: 8.87

Lookup: Look up pIC50: CC(C)(C)Cn1c(=O)c(C(=O)NC2CC2)c(O)n2nc3c(c12)CCN3CC(F)(F)F [Synthesis Example 398]
Found: 8.22

Lookup: Look up pIC50: COc1cncc(Nc2cc3n(CC(C)(C)C)c(=O)c(C(=O)NC4CC4)c(O)n3n2)n1 [Synthesis Example 17]
Found: 9.12

Lookup: Look up pIC50: Cc1c(N)nn2c(O)c(C(=O)NC3CC3)c(=O)n(CC(C)(C)C)c12 [Synthesis Example 437, hydrochloride]
Found: 8.86

Lookup: Look up pIC50: CC(C)(Cn1c(=O)c(C(=O)NC2CC2)c(O)n2nc(C(N)=O)cc12)C(F)(F)F [Synthesis Example 277]
Found: 9.09

Lookup: Look up pIC50: CC(C)Cn1c(=O)c(C(=O)NC2CC2)c(O)n2ncc(/C=C/C(=O)N3CCOC[C@@H]3CO)c12
Found: 9.19

Lookup: Look up pIC50: COC(C)Cn1c(=O)c(C(=O)NC2CC2)c(O)n2ncc(/C=C/C(=O)N3CCOCC3)c12 (single isomer, unassigned) [Synthesis Example 384]
Found: 9.09

Lookup: Look up pIC50: CC(C)Cn1c(=O)c(C(=O)NC2CC2)c(O)n2nc(C(N)=O)c(/C=C/C3CCOCC3)c12
Found: 9.16

Lookup: Look up pIC50: CC(C)Cn1c(=O)c(C(=O)NC2CC2)c(O)n2ncc(CNC(=O)C3CCOCC3)c12 [Synthesis Example 262]
Found: 9.00

Lookup: Look up pIC50: COC[C@@H]1CCCN1C(=O)/C=C/c1c(C)nn2c(O)c(C(=O)NC3CC3)c(=O)n(CC(C)C)c12 [Synthesis Example 613]
Found: 8.98

Lookup: Look up pIC50: CC(C)(C)Cn1c(=O)c(C(=O)NC2CC2)c(O)n2nc(Nc3cnc(C(=O)NCC(F)F)cn3)cc12 [Synthesis Example 353]
Found: 9.09

----------
# test.target: human SPR (Homo sapiens (Human))
# experiment.description: Evaluation Example 2: Measurement of human SPR inhibitory activity (seven concentrations, sepiapterin absorbance at 420 nm)
# Assay type: biochemical
# measurement.conditions: Evaluation Example 2, seven concentrations 0.14 nM to 100 nM, 240 minutes at room temperature, read-out: IC50
reported.metric: IC50 (nM)
The reply should contain only the number, in nM.

Lookup: Look up IC50: CC(C)Cn1c(=O)c(C(=O)NC2CC2)c(O)n2ncc(C(=O)Nc3ccccn3)c12 [Synthesis Example 225]
Found: 1.84

Lookup: Look up IC50: C[C@H](Nc1cc2n(CC(C)(C)C)c(=O)c(C(=O)NC3CC3)c(O)n2n1)c1ccccn1 [Synthesis Example 326]
Found: 1.96

Lookup: Look up IC50: CC(C)(C)Cn1c(=O)c(C(=O)NC2CC2)c(O)n2nc(-c3n[nH]cc3C#N)cc12 [Synthesis Example 292]
Found: 1.32

Lookup: Look up IC50: CC(C)Cn1c(=O)c(C(=O)NC2CC2)c(O)n2ncc(/C=C/c3cnccn3)c12 [Synthesis Example 236]
Found: 0.97

Lookup: Look up IC50: COC(C)Cn1c(=O)c(C(=O)NC2CC2)c(O)n2ncc(/C=C/C(=O)N3CCOCC3)c12 (single isomer, unassigned) [Synthesis Example 385]
Found: 0.83

Lookup: Look up IC50: COCCN(C)C(=O)/C=C/c1cnn2c(O)c(C(=O)NC3CC3)c(=O)n(CC(C)C)c12
Found: 0.68

Lookup: Look up IC50: CC(C)Cn1c(=O)c(C(=O)NC2CC2)c(O)n2ncc(CNC(=O)C3CCC(F)(F)CC3)c12 [Synthesis Example 263]
Found: 1.22
